Where these numbers come from: ChEMBL document CHEMBL4402579

biological target: UniProt Q9R1E6; assay: Inhibition of ATX in mouse plasma assessed as reduction in LPA prodution at 10 uM after 3 hrs by LC-MS/MS analysis; assay type: cell-free
Active and inactive are the calls of the source. The calls are words filed in the database; no cut-off is given here.
Outcome codes: true = active, false = inactive

# structure_notation, label_value
rows = [
    ("CCCCCn1c(C)cc(=O)n2cc(-c3ccc(F)cc3)nc12", "true"),
    ("Cc1cc(=O)n2cc(-c3ccc(Cl)cc3)nc2n1Cc1ccccc1", "true"),
    ("Cc1cc(=O)n2cc(-c3ccc(Cl)cc3)nc2n1CC(=O)O", "false"),
    ("Cc1cc(=O)n2cc(-c3ccc(Cl)cc3)nc2n1CC(=O)OC(C)(C)C", "false"),
    ("CCCCCn1c(C)cc(=O)n2cc(-c3ccc(Cl)cc3)nc12", "true"),
    ("CCCCCn1c(C)cc(=O)n2cc(-c3ccc(Br)cc3)nc12", "true"),
]
